# CC50 at 96 h annotations
# test.description: Cytotoxicity against human MT4 cells after 4 days by MTT assay
# Format: cell-based
# reported.conditions: MT4 cells
reported.endpoint: CC50 at 96 h

> print(dat)
                                 item.smiles     result
 1               O=c1cc[nH]c2cc3c(cc12)OCCO3   > 356 µM
 2  CC1(C)OC(=O)C(=CNc2cccc(-c3nc4ccccc4s3)c2)C(=O)O1   > 190 µM
 3               Cc1nc2ccc3c(c(=O)ccn3C)c2s1   > 341 µM
 4  CC1(C)OC(=O)C(=CNc2ccc3c(c2)OCO3)C(=O)O1   > 430 µM
 5       O=c1cc[nH]c2c(-c3nc4ccccc4s3)cccc12     8.6 µM
 6   Cc1nc2ccc(NC=C3C(=O)OC(C)(C)OC3=O)cc2s1   > 317 µM
 7  CC1(C)OC(=O)C(=CNc2ccccc2-c2nc3ccccc3s2)C(=O)O1    41.6 µM
 8  CC1(C)OC(=O)C(=CNc2ccc([N+](=O)[O-])cc2)C(=O)O1  > 21.2 µM
 9         O=c1cc[nH]c2ccc([N+](=O)[O-])cc12   > 356 µM
10  CN(C)c1nc2ccc(NC=C3C(=O)OC(C)(C)OC3=O)cc2o1   > 378 µM
11         O=c1cc[nH]c2c([N+](=O)[O-])cccc12  > 71.6 µM
12   CC1(C)OC(=O)C(CNc2ccc3c(c2)CCC3)C(=O)O1   > 292 µM
13               Cc1nc2ccc3[nH]ccc(=O)c3c2s1   > 405 µM
14                    Nc1ccc2[nH]ccc(=O)c2c1   ≥ 631 µM
15  CCOC(=O)C(=CNc1ccc([N+](=O)[O-])cc1)C(=O)OCC   ≥ 250 µM
16  CC1(C)OC(=O)C(=CNc2ccc3[nH]nnc3c2)C(=O)O1  > 68.1 µM
17  CC1(C)OC(=O)C(=CNc2ccc3cn[nH]c3c2)C(=O)O1   > 436 µM
18           CN(C)c1nc2cc3[nH]ccc(=O)c3cc2o1   > 324 µM
19    CC1(C)OC(=O)C(=CNc2ccc3ncsc3c2)C(=O)O1  > 39.1 µM
20  CC1(C)OC(=O)C(=CNc2ccc3[nH]c(=O)[nH]c3c2)C(=O)O1   > 412 µM
21  CC1(C)OC(=O)C(=CNc2cccc([N+](=O)[O-])c2)C(=O)O1   > 251 µM
22  CC1(C)OC(=O)C(=CNc2ccc3c(c2)OCCO3)C(=O)O1   > 428 µM
23  CC1(C)OC(=O)C(=CNc2ccccc2[N+](=O)[O-])C(=O)O1   ≥ 411 µM
